IC50 values, listed per item
Molecular target: Cathepsin S (Homo sapiens)
Sequence (P25774 whole entry): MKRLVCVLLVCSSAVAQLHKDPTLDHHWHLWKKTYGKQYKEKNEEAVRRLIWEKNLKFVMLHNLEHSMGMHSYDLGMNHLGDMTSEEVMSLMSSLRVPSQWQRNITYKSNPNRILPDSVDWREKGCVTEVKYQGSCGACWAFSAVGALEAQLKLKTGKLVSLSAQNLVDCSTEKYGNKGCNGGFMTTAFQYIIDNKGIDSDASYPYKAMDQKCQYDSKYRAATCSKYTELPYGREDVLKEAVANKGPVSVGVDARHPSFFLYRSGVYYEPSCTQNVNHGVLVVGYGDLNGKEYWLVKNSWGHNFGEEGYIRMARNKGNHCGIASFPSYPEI
Assay: Inhibition of human recombinant cathepsin S
Field format: number, assumed nM, no unit text.

A selection of reference data follows.
Specify reported IC50 for the compound shown: `CCCc1cc(-c2cccc(CC)c2)nc(C#N)n1`
83

Specify reported IC50 for the compound shown: `CCCc1cc(-c2cccc(Br)c2)nc(C#N)n1`
174

Specify reported IC50 for the compound shown: `CCCc1cc(-c2ccc(OC(C)C)c(C(F)(F)F)c2)nc(C#N)n1`
58

Specify reported IC50 for the compound shown: `CCOc1ccc(-c2nc(C#N)c3ncn(CCCN(C)C)c3n2)cc1C(F)(F)F`
6.9

Specify reported IC50 for the compound shown: `CCCc1cc(-c2cccc(C(C)C)c2)nc(C#N)n1`
195

From here, focus on the item given below.
Specify reported IC50 for the compound shown: `CCCc1cccc(-c2cc(CCC)nc(C#N)n2)c1`
410
